test target: T1, human CD3 (human, UniProt P07766 23-207; P04234 22-171; P09693 23-182)
T1 construct: whole, on cells; also called CD3 on Jurkat cells; CD3 on human primary T cells
T1 sequence (P07766 23-207, chain 1 of 3): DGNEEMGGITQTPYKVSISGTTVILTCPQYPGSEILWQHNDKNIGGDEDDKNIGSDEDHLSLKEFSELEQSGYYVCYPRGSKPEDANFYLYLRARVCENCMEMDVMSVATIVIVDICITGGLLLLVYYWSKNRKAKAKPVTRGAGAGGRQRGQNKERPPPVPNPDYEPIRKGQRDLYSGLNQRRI
T1 sequence (P04234 22-171, chain 2 of 3): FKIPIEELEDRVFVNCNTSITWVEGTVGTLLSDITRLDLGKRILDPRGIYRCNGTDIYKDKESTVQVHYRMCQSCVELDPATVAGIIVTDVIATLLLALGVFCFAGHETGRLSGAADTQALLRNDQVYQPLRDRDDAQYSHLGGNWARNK
T1 sequence (P09693 23-182, chain 3 of 3): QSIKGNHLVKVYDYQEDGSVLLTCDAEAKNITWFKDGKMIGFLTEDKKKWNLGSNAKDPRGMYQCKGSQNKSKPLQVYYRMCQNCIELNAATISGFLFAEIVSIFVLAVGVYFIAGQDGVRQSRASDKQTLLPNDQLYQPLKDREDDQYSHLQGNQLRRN
test details: flow cytometry, Jurkat cells, 25 nM antibody
Here the recorded Jurkat Cell Binding (FOI) is given for each entry.

binder	Jurkat Cell Binding (FOI)
mAb 300 (antibody, V domains shown, VH and VL only) VH: EVQLLESGGGLVQPGGSLRLSCAASGFTFSRYAMSWVRQAPGRGLEWVSTISGSGGRTYYVDSVKGRFTISRDNSKNTLYLQMNSLRAEDTAVYYCAKMFSYYYYYMDVWGKGTTVTVSS VL: EIVMTQSPATLSLSPGKRATLSCRASQSVSTTYLSWYLQKPGQAPRLLIYGASTRATGIPARFSGSGSGTDFTLTISSLQPEDFAVYYCQQDYNLPPYTFGQGTKLEIK	68
mAb 296 (antibody, V domains shown, VH and VL only) VH: EVQLLESGGGLVQPGGSLRLSCAASGFTFSSYAMSWVRQAPGKGLEWVSAISGSGGTTYYTDSVKGRFTISRDNSKNTLYLQMNSLRAEDTAVYYCAKKYSYYYYYMDVWGKGTTVTVSS VL: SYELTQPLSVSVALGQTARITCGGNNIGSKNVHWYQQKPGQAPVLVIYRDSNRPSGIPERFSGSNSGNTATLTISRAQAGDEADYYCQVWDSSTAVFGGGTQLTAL	167
mAb 316 (antibody, V domains shown, VH and VL only) VH: EVQLLESGGGLVQPGGSRRLSCAASGFTFRTYAMSWVRQAPGKGLEWVSVINGRGDDTNYADSVKGRFTISRDNSKNILFLQMNSLRAEDTAVYYCAKKYSYYYYYMDVWGKGTTVTVSS VL: SYELTQPLSVSVALGQTARITCGGNNIGSKDVHWYQQKPGQAPVLVIYRDSNRPSGIPERFSGSNSGNTATLTISRAQAGDEADYYCQVWDSRTAVFGGGTQLTAL	253
mAb 318 (antibody, V domains shown, VH and VL only) VH: EGQLLESGGGLVQPGGSLRLSCAASGFTFSRYAMSWIRQAPGKGLEWVSVIDGSGGDKNYADSVKGRFTISRDNSKNSLYLLMNGLRVEDTAIYFCAKKFSYYYYYMDVWGKGTSVTVSS VL: SYELTQPLSVSVALGQTARITCGGNNIGGKDVHWYQQKPGQAPVLVIYRDSNRPSGIPERFSGSNSGNTATLTISRAQAGDEADYYCQVWDSRTAVFGGGTQLTAL	211
mAb 301 (antibody, V domains shown, VH and VL only) VH: EVQLLESGGGLVQPGGSRRLSCAASGFTFSSYAMSWVRQAPGKGLEWVSVISGRGDNTNYADSVKGRFTISRENSKNMLYLQMNSLRAEDTAVYYCAKKYSYYYYYMDVWGKGTTVTVSS VL: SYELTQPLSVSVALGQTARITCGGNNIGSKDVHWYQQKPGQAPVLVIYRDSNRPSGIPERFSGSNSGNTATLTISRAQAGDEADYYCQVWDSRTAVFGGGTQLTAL	253
